- Test system: MS2 coat protein
- Assay Details: apparent KD of MS2 coat protein; designed switch direction (-1 OFF switch, 1 ON switch): 1; higher = weaker reporter binding
- Test Context: input ligand: FMN 200 uM
Quantity Measured: apparent KD of MS2 coat protein

{"columns": ["Biopolymer Sequence", "apparent KD of MS2 coat protein"],
 "data": [
  ["AUUAUUGAUGCAGGAUAUGAUUAACAUGAGGAUCACCCAUGUGGUGUUGUGAGUAAGGAGAGUGAUCAGAAGGGCAUUUUUUUU [JMF's solution 23] (Eterna round: R96, puzzle: Same State NG 2)", "747 nM"],
  ["AGAUCAUGACGAGGAUAUGGUACAUGAGGAUCACCCAUGUAUGUACCACGACGCGUACGUCGAAUCCAGAAGGCGUCAUGGUCA [Mat - Same State NG 2 - JL mod - D17] (Eterna round: R96, puzzle: Same State NG 2)", "17.8 nM"],
  ["UUUAUUUAUGCAGGAUAUGAUUAACAUGAGGAUCACCCAUGUGGUGUUGUGAGUAAGGAGAGUGAUCAGAAGGGCAUUUUUUUU [JMF's solution 76] (Eterna round: R96, puzzle: Same State NG 2)", "610 nM"]
]}

Provide each entry's apparent KD of MS2 coat protein from the list below.
1. GUGGAGGGUUGAGGAUAUUGAUUGCAUAUGUUUAACAUGAGGAUCACCCAUGUGGGUUGCGGUUUCGAGAAGGUAGGUUGCUGG [salish99_SSNG2_r04_042] (Eterna round: R96, puzzle: Same State NG 2)
2. UUGAAGAAUUAAGGAUAUUGAGUACAUAUGUAAAACAUGAGGAUCACCCAUGUGGGUUGCGGUAUCGAGAAGGUAAAUUAAUAG [Mat - same State NG 2 - JL mod - D70] (Eterna round: R96, puzzle: Same State NG 2)
3. GCUAGUAUUAUUGUCAACAUGAGGAUCACCCAUGUAUGUUGGCAGGAUAUCGUUUGCUUUGCAAACGAGAAGGGCUAAACUAGC [JL SSNG3 1.04] (Eterna round: R96, puzzle: Same State NG 3)
4. UUAACAUGACGAGGAUAUCAUUUAUAUCUUGAUUGAGAAGGCGUUCUUUUUUUUACCUAACAUGAGGAUCACCCAUGUGACAGU [JR_SSNG1_Sub051] (Eterna round: R96, puzzle: Same State NG 1)
5. GGAGCCGGCCUAGGAUAUUUCAUACAAAAACAUGAGGAUCACCCAUGUAGGCCAGAAGGCCUUGGGAAGAAGGAGGUCGGCUCC [Loop Effect - C25] (Eterna round: R96, puzzle: Same State NG 2)
6. AUAUUUAAUGCAGGAUAUGAUUAACAUGAGGAUCACCCAUGUGGUGUUGUGAGUAAGGAGAGUGAUCAGAAGGGCAUUUUUUUU [JMF's solution 100] (Eterna round: R96, puzzle: Same State NG 2)

Data returned:
1: 80.8 nM; 2: 87 nM; 3: 61.2 nM; 4: 12.4 nM; 5: 14.5 nM; 6: 821 nM

Sourced from the supplement of paper PMC9170038
